target or test system: Mitogen-activated protein kinase 10 (Homo sapiens)
Sequence (P53779 whole entry): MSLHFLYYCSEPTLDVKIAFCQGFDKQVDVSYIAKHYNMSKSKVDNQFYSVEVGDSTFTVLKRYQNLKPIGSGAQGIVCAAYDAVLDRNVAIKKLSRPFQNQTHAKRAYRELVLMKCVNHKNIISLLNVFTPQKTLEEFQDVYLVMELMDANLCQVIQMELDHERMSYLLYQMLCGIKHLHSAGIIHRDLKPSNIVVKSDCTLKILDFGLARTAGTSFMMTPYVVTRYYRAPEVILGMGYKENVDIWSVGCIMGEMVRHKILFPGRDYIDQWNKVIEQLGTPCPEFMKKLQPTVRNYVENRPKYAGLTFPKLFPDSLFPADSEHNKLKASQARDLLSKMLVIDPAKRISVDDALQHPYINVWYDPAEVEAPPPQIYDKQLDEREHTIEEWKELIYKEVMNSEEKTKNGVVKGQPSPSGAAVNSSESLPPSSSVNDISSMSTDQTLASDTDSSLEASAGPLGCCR
procedure details: Inhibition of JNK3 (unknown origin) by JIP-FP displacement assay
experimental readout: IC50 (nM)
Enter your answer as a number in nM; do not include the unit.

Ask: Entry COc1ccc2c(c1)OCC(C(=O)NC(=O)N(CC(=O)NCCCCCCNC(=O)c1ccc(-c3n[nH]c4ccccc34)cc1)CC(C)C)O2 (stereo unspecified) : reported IC50 = ?
Result: 12

====

target or test system: Phosphatidylinositol 4,5-bisphosphate 3-kinase catalytic subunit gamma isoform (Homo sapiens)
Sequence (P48736 whole entry, canonical isoform): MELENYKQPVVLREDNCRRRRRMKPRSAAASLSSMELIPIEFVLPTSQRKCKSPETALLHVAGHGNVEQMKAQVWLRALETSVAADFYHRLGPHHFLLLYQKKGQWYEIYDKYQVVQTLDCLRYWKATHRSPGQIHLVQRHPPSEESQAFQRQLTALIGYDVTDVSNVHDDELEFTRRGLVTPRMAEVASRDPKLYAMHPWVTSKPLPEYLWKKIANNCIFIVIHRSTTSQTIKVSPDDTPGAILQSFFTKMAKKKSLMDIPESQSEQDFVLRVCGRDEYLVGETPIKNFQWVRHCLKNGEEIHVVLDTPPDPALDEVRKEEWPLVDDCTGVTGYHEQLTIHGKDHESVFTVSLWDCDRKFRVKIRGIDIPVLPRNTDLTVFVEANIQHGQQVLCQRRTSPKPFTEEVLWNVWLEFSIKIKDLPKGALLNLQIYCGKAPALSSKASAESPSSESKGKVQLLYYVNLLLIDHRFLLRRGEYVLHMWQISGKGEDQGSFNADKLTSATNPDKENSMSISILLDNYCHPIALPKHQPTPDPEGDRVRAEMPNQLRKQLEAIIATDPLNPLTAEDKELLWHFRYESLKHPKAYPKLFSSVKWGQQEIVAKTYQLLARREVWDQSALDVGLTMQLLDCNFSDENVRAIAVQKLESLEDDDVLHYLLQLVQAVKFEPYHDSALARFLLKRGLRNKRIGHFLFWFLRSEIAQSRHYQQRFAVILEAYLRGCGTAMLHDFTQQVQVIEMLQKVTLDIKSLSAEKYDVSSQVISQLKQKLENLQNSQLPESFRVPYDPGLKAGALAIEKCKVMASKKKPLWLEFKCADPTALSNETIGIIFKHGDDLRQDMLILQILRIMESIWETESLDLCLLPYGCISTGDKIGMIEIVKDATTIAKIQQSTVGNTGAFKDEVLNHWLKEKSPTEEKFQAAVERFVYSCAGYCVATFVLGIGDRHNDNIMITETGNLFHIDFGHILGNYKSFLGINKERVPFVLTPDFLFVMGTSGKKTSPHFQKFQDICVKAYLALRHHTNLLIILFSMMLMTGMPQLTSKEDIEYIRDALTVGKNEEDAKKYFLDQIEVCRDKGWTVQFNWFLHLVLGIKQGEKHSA
procedure details: Inhibition of PI3Kgamma (unknown origin) by KINOMEScan assay
experimental readout: Kd (nM)
Enter your answer as a number in nM; do not include the unit.

Ask: Entry `O=C(O/N=C1/c2ccccc2-c2nc3ccccc3nc21)c1ccco1` : reported Kd = ?
Result: 430

Ask: Entry `COc1ccc(C(=O)O/N=C2/c3ccccc3-c3nc4ccccc4nc32)cc1OC` : reported Kd = ?
Result: 12000

Ask: Entry `O/N=C1/c2ccccc2-c2nc3ccccc3nc21` : reported Kd = ?
Result: 470
